# assay.system: UniProt:Q9H0A0
# Sequence (Q9H0A0 whole entry): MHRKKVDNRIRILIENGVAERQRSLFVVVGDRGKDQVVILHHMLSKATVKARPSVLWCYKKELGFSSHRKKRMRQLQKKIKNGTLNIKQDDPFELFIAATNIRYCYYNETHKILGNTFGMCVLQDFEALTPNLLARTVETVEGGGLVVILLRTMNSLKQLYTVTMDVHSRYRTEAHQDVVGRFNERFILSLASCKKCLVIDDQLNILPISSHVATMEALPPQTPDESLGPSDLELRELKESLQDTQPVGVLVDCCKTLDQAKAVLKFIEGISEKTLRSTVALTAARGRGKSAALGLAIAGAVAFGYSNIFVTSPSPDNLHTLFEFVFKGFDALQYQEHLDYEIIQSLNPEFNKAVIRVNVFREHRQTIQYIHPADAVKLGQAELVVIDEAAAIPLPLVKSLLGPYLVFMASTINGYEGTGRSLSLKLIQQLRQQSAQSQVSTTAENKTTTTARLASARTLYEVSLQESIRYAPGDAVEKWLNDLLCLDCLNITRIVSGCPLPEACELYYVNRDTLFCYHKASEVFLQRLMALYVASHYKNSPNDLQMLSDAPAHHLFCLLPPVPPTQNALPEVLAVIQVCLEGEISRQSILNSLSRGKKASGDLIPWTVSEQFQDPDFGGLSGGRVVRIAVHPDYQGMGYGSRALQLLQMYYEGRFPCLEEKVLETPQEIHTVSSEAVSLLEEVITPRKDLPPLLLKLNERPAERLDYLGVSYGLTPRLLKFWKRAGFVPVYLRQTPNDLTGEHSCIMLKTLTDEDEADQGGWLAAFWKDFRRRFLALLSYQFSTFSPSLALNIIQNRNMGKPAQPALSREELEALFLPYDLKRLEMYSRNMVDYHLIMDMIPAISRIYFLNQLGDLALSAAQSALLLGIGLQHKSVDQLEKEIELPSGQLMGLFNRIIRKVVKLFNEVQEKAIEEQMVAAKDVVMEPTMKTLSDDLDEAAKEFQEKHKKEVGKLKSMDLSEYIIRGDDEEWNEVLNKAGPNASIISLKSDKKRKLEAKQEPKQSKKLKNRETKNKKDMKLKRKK
Activity calls are given as the source filed them.
# Lookup of reported Kd keyed by entry

Example results:
CCS(=O)(=O)c1cccc(-c2cc(C(=O)NC3CCN(C)CC3)c(C)c3[nH]c4ncc(C)cc4c23)c1 | > 30 µM (inactive)
COc1cc2c(Nc3ccc(Cl)c(Cl)c3F)ncnc2cc1OC[C@@H]1C[C@@H]2CN(C)C[C@@H]2C1 | > 30 µM (inactive)
CNC(=O)c1cc(Oc2ccc(NC(=O)Nc3cc(C(C)(C)C)nn3-c3ccc4ncccc4c3)c(F)c2)ccn1 | > 30 µM (inactive)
C#Cc1cccc(Nc2ncnc3cc(OC)c(OCCCCCCC(=O)NO)cc23)c1 | > 30 µM (inactive)
CN1C/C=C/CCOc2cccc(c2)-c2ccnc(n2)Nc2cccc(c2)C1 | > 30 µM (inactive)
CC(C)(C)c1nc(-c2cccc(NS(=O)(=O)c3c(F)cccc3F)c2F)c(-c2ccnc(N)n2)s1 | > 30 µM (inactive)
Cn1cc(-c2cnn3c(N)c(Br)c([C@@H]4CCCNC4)nc23)cn1 | > 30 µM (inactive)

Return reported Kd; argument: C=CC(=O)N1CCC[C@H](n2c(=O)n(-c3ccc(Oc4ccccc4)cc3)c3c(N)ncnc32)C1
> 30 µM (inactive)
